test system: A498 renal; experiment: NCI-60 one-dose screen, 48 h (100 = growth as untreated, 0 = no growth, -100 = all killed); settings: 10 µM unless noted
About 83,000 compounds went through this panel and 20% of them were active in at least one assay; those are over-represented in the sample as a whole.
QUANTITY_MEASURED: growth (%)
Lab book: enter the figure in %, no units written.

CCN(CC)CCCC(C)Nc1c(-c2ccccc2)cnc2cc(Cl)ccc12 (stereo not drawn) :: 60
COc1cc(C2CC(c3ccccc3)=NN2C=O)ccc1Oc1nc2c(c(=O)n(C)c(=O)n2C)n1C (stereo not drawn) :: 81.3

Consider now this further compound.
Query string: Can you look up growth on A498 renal for Fc1ccc(-c2nc(-c3ccc(-c4nc5ccc(F)cc5[nH]4)cc3)no2)cc1 ?
Result string: 79.6

====

# reported growth; entries follow
Tested on: SK-MEL-2 melanoma
Assay: NCI-60 one-dose screen, 48 h (100 = growth as untreated, 0 = no growth, -100 = all killed)
Settings: 10 µM unless noted
Procedure: Growth inhibition of the SK-MEL-2 human tumor cell line is measured as a screen for anti-cancer activity. Cells are grown in 96 well plates and exposed to the test compound for 48 hours. Compounds are tested at a single concentration, which is 10^-5 M for most compounds. The reported endpoint is percent growth (GI% or GIPRCNT), where numbers from 0 - 100% represent growth inhibition, and numbers from -100% - 0 represent cell death. For example, a value of 40 represents 60% growth inhibition. […]
This is part of a sample that, as a whole, favours compounds with a hit. Of some 83,000 tested, about 20% had one in any assay. Active and inactive are the calls of the source. How the source made its calls: active means growth percent below 10; inactive means the rest.

COc1ncnc2[nH]cc(CN3CCN(c4ccc(F)cc4)CC3)c12 :: 103% (inactive)
C[C@@H]1CC2C3CCC4=CC(=O)C=C[C@]4(C)[C@@]3(Cl)[C@@H](O)C[C@]2(C)[C@@]1(OC(=O)c1ccco1)C(=O)CCl (some centres not stated) :: 76.6% (inactive)
Cc1cc(O)c2cc3c(O)c(O)ccc3cc2c1 :: 124% (inactive)
CN1C(=O)N(C)C2C1NN=c1s/c(=C\c3ccsc3)c(=O)n12 (configuration not stated) :: 56.4% (inactive)
Clc1cc(Cl)cc(-c2cnc3nonc3n2)c1 :: 98.5% (inactive)
CSc1ccc(/C=C2\C=C(CC(=O)NCc3ccc(C(=O)c4ccccc4)cc3)c3cc(F)ccc32)cc1 :: -3.62% (active)

Consider now this further compound.
Query string: Which value of growth has been reported for CCN(C(=O)CCl)C(C)(C)C(SSSC(c1ccc(Cl)cc1)C(C)(C)N(CC)C(=O)CCl)c1ccc(Cl)cc1 (configuration not stated) in the records?
Result string: 78.5% (inactive)

====

# reported growth; entries follow
tested on: NCI-H460 lung; experiment: NCI-60 one-dose screen, 48 h (100 = growth as untreated, 0 = no growth, -100 = all killed); conditions: 10 µM unless noted
The panel holds about 83,000 compounds, 20% with a hit somewhere; the sample as a whole holds those more often.
Lab book: enter the figure in %, no units written.

Consider the following illustrative entries.
C[N+](C)(C)CCCCCCCCCC[N+](C)(C)C :: 98.2
COc1cccc(/C=N\Nc2ccc([N+](=O)[O-])cn2)c1O :: 18
CCCNCCC(C)=O :: 103
Oc1c(C(Nc2cccc3ccccc23)c2ccccc2)ccc2cccnc12 (configuration not stated) :: 5.7
CCN(CC)c1ccc(/C=N/N=C(N)N)cc1 :: 23.3

Consider now this further molecule.
Query string: Which value of growth has been reported for COc1cc(NC(=O)CSc2nc3ccc(Cl)cc3c(=O)n2Cc2ccccc2)cc(OC)c1OC in the records?
Result string: 64.7
